target: UniProtKB P29597; assay: TYK2 degradation MSD assay in EBV-B cells; assay type: cell-based; parameters: endogenous in cells; host or cells: EBV-B cells; conditions: 4 to 24 hours incubation, read-out: TYK2 MSD DC50 rating in EBV-B
assay_readout: DC50

Observe how each entry below is paired with its result.
compound	target	DC50
Cn1c(=O)n(C2CCC(=O)NC2=O)c2cccc(CCCCNc3cc(Nc4cccn(-c5ccccn5)c4=O)nn4c(C(=O)N[C@@H]5C[C@@H]5F)cnc34)c21 (some centres unmarked)	UniProtKB P29597	> 100 nM
CNc1cc(Nc2cccn(-c3cc(C(=O)NCCOCCOCCOCCOCCc4ccc5c(c4)n(C)c(=O)n5C4CCC(=O)NC4=O)ccn3)c2=O)nn2c(C(=O)N[C@@H]3C[C@@H]3F)cnc12 (some centres unmarked)	UniProtKB P29597	> 100 nM
CNc1cc(Nc2cccn(-c3ccc(C(=O)NCCOCCOCCc4ccc5c(c4)n(C)c(=O)n5C4CCC(=O)NC4=O)cn3)c2=O)nn2c(C(=O)N[C@@H]3C[C@@H]3F)cnc12 (some centres unmarked)	UniProtKB P29597	> 100 nM
CCNC(=O)c1cnc(Nc2ccc(C(=O)N(C)C3CCN(c4ccc5c(c4)n(C)c(=O)n5C4CCC(=O)NC4=O)CC3)cn2)cc1Nc1cccc(-c2ncc(F)cn2)c1OC (centres unmarked)	UniProtKB P29597	1 to 10 nM

Here's the next entry for you.
# DC50 lookup, item CNC(=O)c1cnc(Nc2cc(CN3CCN(c4cccc5c4n(C)c(=O)n5C4CCC(=O)NC4=O)CC3)ccn2)cc1Nc1cccc(-c2ncc(F)cn2)c1OC (centres unmarked)
1 to 10 nM

----------
target: TYK2 (Homo sapiens); experiment: TYK2 degradation MSD assay in EBV-B cells; type: cell-based; design: endogenous in cells; host or cells: EBV-B cells; conditions: 4 to 24 hours incubation, read-out: TYK2 MSD DC50 rating in EBV-B
assay_readout: DC50

molecule	value_observed
CNc1cc(C2CCCN(C(=O)CCCCCCCc3ccc4c(c3)n(C)c(=O)n4C3CCC(=O)NC3=O)C2)nn2c(C(=O)N[C@@H]3C[C@@H]3F)cnc12 (some centres unmarked)	> 100 nM
CNc1cc(Nc2cccn(-c3cccc(C(=O)NCCOCCOCCc4cccc5c4n(C)c(=O)n5C4CCC(=O)NC4=O)c3)c2=O)nn2c(C(=O)N[C@@H]3C[C@@H]3F)cnc12 (some centres unmarked)	> 100 nM
CNc1cc(Nc2cccn(-c3ccc(C(=O)N4CCC(n5cc(-c6ccc7c(c6)n(C)c(=O)n7C6CCC(=O)NC6=O)cn5)CC4)cn3)c2=O)nn2c(C(=O)N[C@@H]3C[C@@H]3F)cnc12 (some centres unmarked)	< 1 nM
CNc1cc(Nc2cccc(N3CCC(CN4CCC(c5ccc(-c6ccc7c(c6)n(C)c(=O)n7C6CCC(=O)NC6=O)cc5)CC4)CC3)c2OC)nn2c(C(=O)N[C@@H]3C[C@@H]3F)cnc12 (some centres unmarked)	> 100 nM

Here's the next entry for you.
Please state recorded DC50 (tested on TYK2 (Homo sapiens)) of CNC(=O)c1cnc(Nc2ccc(C(=O)NCCCCc3cccc4c3n(C)c(=O)n4C3CCC(=O)NC3=O)cn2)cc1Nc1cccc(-c2ncc(F)cn2)c1OC (centres unmarked)
1 to 10 nM

----------
DC50 reference
target: TYK2 (Homo sapiens); experiment: TYK2 degradation MSD assay in human PBMC cells; format: cell-based; parameters: endogenous in cells; host or cells: human PBMC; settings: 4 to 24 hours incubation, read-out: TYK2 MSD DC50 rating in human PBMC

compound	target	DC50
CNc1cc(C2CCCN(C(=O)CCCCCCCc3ccc4c(c3)n(C)c(=O)n4C3CCC(=O)NC3=O)C2)nn2c(C(=O)N[C@@H]3C[C@@H]3F)cnc12 (stereo partly shown) [Example K304]	TYK2 (Homo sapiens)	> 100 nM
CNC(=O)c1cnc(Nc2ccc(CN(C)C3CCN(c4ccc5c(c4)n(C)c(=O)n5C4CCC(=O)NC4=O)CC3)cn2)cc1Nc1cccc(-c2ncc(F)cn2)c1OC (stereo not shown) [Example K155]	TYK2 (Homo sapiens)	< 1 nM
CNc1cc(Nc2cccn(-c3ccc(C(=O)N4CCC(OCC#Cc5ccc6c(c5)n(C)c(=O)n6C5CCC(=O)NC5=O)CC4)cn3)c2=O)nn2c(C(=O)N[C@@H]3C[C@@H]3F)cnc12 (stereo partly shown) [Example K394]	TYK2 (Homo sapiens)	> 100 nM
Cn1c(=O)n(C2CCC(=O)NC2=O)c2ccc(CCOCCOCCOCCOCCNc3cc(Nc4cccn(-c5ccccn5)c4=O)nn4c(C(=O)NC5C[C@@H]5F)cnc34)cc21 (stereo partly shown) [Example K202]	TYK2 (Homo sapiens)	> 100 nM
CNC(=O)c1cnc(Nc2ccc(C(=O)NCCCCc3cccc4c3n(C)c(=O)n4C3CCC(=O)NC3=O)cn2)cc1Nc1cccn(C)c1=O (stereo not shown) [Example K189]	TYK2 (Homo sapiens)	10 to 100 nM

# DC50 lookup, item CNc1cc(Nc2cccc(-c3ccc(CN4CC5(CCN(c6cccc7c6n(C)c(=O)n7C6CCC(=O)NC6=O)CC5)C4)cn3)c2)nn2c(C(=O)N[C@@H]3C[C@@H]3F)cnc12 (stereo partly shown) [Example K464]
> 100 nM

# DC50 lookup, item CNc1cc(N2CCc3c(N4CCC(CN5CCC(C#Cc6cccc7c6n(C)c(=O)n7C6CCC(=O)NC6=O)CC5)CC4)cccc32)nn2c(C(=O)N[C@@H]3C[C@@H]3F)cnc12 (stereo partly shown) [Example K635]
> 100 nM

# DC50 lookup, item CNc1cc(Nc2cccn(-c3cccc(C(=O)NCCCCCCCCCCc4cccc5c4n(C)c(=O)n5C4CCC(=O)NC4=O)c3)c2=O)nn2c(C(=O)N[C@@H]3C[C@@H]3F)cnc12 (stereo partly shown) [Example K226]
10 to 100 nM

# DC50 lookup, item CNc1cc(Nc2cccn(-c3ccc(C(=O)N4CCC(c5ncc(-c6ccc7c(c6)n(C)c(=O)n7C6CCC(=O)NC6=O)cn5)CC4)cn3)c2=O)nn2c(C(=O)N[C@@H]3C[C@@H]3F)cnc12 (stereo partly shown) [Example K385]
< 1 nM

# DC50 lookup, item Cn1c(=O)n(C2CCC(=O)NC2=O)c2ccc(-c3ccc(CCCNc4cc(Nc5cccn(-c6ccccn6)c5=O)nn5c(C(=O)N[C@@H]6C[C@@H]6F)cnc45)nc3)cc21 (stereo partly shown) [Example K365]
> 100 nM

----------
DC50 reference
biological target: TYK2 (Homo sapiens, UniProt P29597); test: TYK2 degradation MSD assay in OCI-LY10 cells; type: cell-based; design: endogenous in cells; host or cells: EBV-B cells; conditions: 4 to 24 hours incubation, read-out: TYK2 MSD DC50 rating in OCI-LY10
Sequence (P29597 whole entry): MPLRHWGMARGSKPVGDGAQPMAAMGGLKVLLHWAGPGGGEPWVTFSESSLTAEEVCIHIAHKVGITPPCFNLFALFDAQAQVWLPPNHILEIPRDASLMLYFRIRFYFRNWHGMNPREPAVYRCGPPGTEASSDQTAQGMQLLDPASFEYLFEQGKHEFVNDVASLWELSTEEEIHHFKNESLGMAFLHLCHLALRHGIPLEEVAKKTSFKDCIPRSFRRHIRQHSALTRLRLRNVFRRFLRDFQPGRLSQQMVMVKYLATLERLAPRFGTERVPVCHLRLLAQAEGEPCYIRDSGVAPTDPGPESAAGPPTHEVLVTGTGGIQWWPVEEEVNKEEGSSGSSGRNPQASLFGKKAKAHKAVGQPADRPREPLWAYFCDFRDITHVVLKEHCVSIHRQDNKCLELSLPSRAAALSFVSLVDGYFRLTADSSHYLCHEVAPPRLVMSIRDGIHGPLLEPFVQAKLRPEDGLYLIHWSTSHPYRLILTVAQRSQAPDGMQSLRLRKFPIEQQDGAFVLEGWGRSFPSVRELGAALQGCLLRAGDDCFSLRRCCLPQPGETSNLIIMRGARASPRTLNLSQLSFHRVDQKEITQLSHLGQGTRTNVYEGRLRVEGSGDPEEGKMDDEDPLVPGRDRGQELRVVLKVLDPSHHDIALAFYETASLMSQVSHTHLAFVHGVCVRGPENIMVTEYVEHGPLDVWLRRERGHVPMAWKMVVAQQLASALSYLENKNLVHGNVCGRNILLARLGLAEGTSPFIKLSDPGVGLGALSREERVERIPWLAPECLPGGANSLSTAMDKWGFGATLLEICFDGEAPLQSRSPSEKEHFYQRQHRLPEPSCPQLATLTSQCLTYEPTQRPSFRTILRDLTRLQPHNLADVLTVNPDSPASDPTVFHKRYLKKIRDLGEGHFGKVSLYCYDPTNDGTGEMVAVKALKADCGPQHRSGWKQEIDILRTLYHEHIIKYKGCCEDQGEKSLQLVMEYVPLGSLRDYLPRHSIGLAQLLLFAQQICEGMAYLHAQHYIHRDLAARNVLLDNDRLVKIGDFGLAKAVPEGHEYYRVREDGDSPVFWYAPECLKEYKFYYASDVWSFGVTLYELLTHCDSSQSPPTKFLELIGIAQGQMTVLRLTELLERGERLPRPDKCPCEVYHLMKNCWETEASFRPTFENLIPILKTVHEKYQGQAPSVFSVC

compound	assay_readout	value_observed
CNc1cc(Nc2cccc(CN3CCC(N4CC(N5CCN(c6ccc7c(c6)n(C)c(=O)n7C6CCC(=O)NC6=O)CC5)C4)CC3)c2)nn2c(C(=O)NC3CC3)cnc12 (centres unmarked)	DC50	< 0.001 µM
CNc1cc(Nc2cccn(-c3ccc(C(=O)NC4CCC(C(=O)N5CCC6(CN(CC#Cc7ccc8c(c7)n(C)c(=O)n8C7CCC(=O)NC7=O)C6)C5)CC4)cn3)c2=O)nn2c(C(=O)N[C@@H]3C[C@@H]3F)cnc12 (some centres unmarked) [Example K444]	DC50	0.001 to 0.01 µM
CNc1cc(-c2cnn(C3CCN(C(=O)NCCCCCCCCc4ccc5c(c4)n(C)c(=O)n5C4CCC(=O)NC4=O)CC3)c2)nn2c(C(=O)N[C@@H]3C[C@@H]3F)cnc12 (some centres unmarked)	DC50	> 0.1 µM
CNC(=O)c1cnc(Nc2ccc(CN3CCC(c4ccc5c(c4)n(C)c(=O)n5C4CCC(=O)NC4=O)C3)cn2)cc1Nc1cccc(-c2ncc(F)cn2)c1OC (centres unmarked)	DC50	> 0.1 µM

Here's the next entry for you.
Please state recorded DC50 (tested on TYK2 (Homo sapiens, UniProt P29597)) of CNc1cc(Nc2cccn(-c3ccc(C(=O)N4CCC5(CN(CC#Cc6ccc7c(c6)n(C)c(=O)n7C6CCC(=O)NC6=O)C5)C4)cn3)c2=O)nn2c(C(=O)N[C@@H]3C[C@@H]3F)cnc12 (some centres unmarked)
> 0.1 µM

----------
target: TYK2 (Homo sapiens, UniProt P29597); assay: TYK2 degradation MSD assay in human PBMC cells; format: cell-based; design: endogenous in cells; host or cells: human PBMC; conditions: 4 to 24 hours incubation, read-out: TYK2 MSD DC50 rating in human PBMC
assay_readout: DC50

Please state recorded DC50 (tested on TYK2 (Homo sapiens, UniProt P29597)) of CNc1cc(-c2ccc(C(=O)NCCCCCCCCc3ccc4c(c3)n(C)c(=O)n4C3CCC(=O)NC3=O)cc2)nn2c(C(=O)N[C@@H]3C[C@@H]3F)cnc12 (stereo partly drawn)
> 100 nM

Please state recorded DC50 (tested on TYK2 (Homo sapiens, UniProt P29597)) of CNC(=O)c1cnc(Nc2ccc(CN3CCC(N(C)c4cccc5c4n(C)c(=O)n5C4CCC(=O)NC4=O)CC3)cn2)cc1Nc1cccc(-c2ncc(F)cn2)c1OC (stereo not drawn)
< 1 nM

Please state recorded DC50 (tested on TYK2 (Homo sapiens, UniProt P29597)) of CNc1cc(-c2cccc(C(=O)NCCCCCCc3cccc4c3n(C)c(=O)n4C3CCC(=O)NC3=O)c2)nn2c(C(=O)N[C@@H]3C[C@@H]3F)cnc12 (stereo partly drawn)
> 100 nM
